target: recombinant human PIM1 (Homo sapiens (Human), UniProt P11309); experiment: PIM-1 kinase activity in cell-free in vitro assay; assay type: biochemical; details: 500 nM compound, cell-free assay; read-out: PIM-1: % inh 500 nM
Sequence (P11309 whole entry): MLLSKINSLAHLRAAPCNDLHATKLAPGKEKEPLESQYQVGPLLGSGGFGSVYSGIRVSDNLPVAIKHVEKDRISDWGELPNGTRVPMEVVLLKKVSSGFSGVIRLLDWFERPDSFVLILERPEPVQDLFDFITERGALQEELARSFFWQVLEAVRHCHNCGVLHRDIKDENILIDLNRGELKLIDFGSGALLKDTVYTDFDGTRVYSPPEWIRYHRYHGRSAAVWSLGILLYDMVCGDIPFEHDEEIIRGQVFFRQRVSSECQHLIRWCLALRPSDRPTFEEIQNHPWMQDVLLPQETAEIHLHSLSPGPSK

- compound: "CSc1ncc2c(n1)c(N(C)c1ccccc1)nc1cc(C(=O)O)ccc12"
  inhibition at 0.5 µM [%]: 48.4
- compound: "C#Cc1cccc(Nc2nc3cc(C(=O)O)ccc3c3ncccc23)c1"
  inhibition at 0.5 µM [%]: 34.9
- compound: "COC(=O)c1ccc2c(c1)nc(Nc1ccccc1C)c1nc(S(C)(=O)=O)ncc12"
  inhibition at 0.5 µM [%]: 25.3
- compound: "CN(C)C1CCN(c2nc3cc(C#N)ccc3c3sccc23)CC1"
  inhibition at 0.5 µM [%]: 20.3
- compound: "CN(C)CCNc1nc2cc(C(=O)NC3CC3)ccc2c2sccc12"
  inhibition at 0.5 µM [%]: 13.7
- compound: "CN1CCCCC1CNc1nc2cc(C#N)ccc2c2ccsc12 (stereo not shown)"
  inhibition at 0.5 µM [%]: 59.5
- compound: "c1cc2c(s1)c(NC1CCNCC1)nc1cc(-c3nnn[nH]3)ccc12"
  inhibition at 0.5 µM [%]: 111

====

target: recombinant human PIM1 (Homo sapiens (Human)); experiment: PIM-1 kinase activity in cell-free in vitro assay; assay type: biochemical; conditions: cell-free assay

- smiles code: "O=C(O)c1ccc2c(c1)nc(NC1CC1)c1nc(Nc3cc(F)ccc3F)ncc12"
  scale unit: "nM"
  qualifier operator: ">"
  IC50: 1100
- smiles code: "COc1ccc(Nc2nc3cc(C(=O)O)ccc3c3cnccc23)cc1OC"
  scale unit: "nM"
  qualifier operator: "="
  IC50: 311
- smiles code: "Cc1ccc(Nc2nc3cc(C(=O)O)ccc3c3cnccc23)nc1"
  scale unit: "nM"
  qualifier operator: ">"
  IC50: 1100
- smiles code: "CN(C)CCNc1nc2cc(-c3nnn[nH]3)ccc2c2ccsc12"
  scale unit: "nM"
  qualifier operator: "="
  IC50: 267
- smiles code: "NC(=O)c1ccc(Nc2nc3cc(C(=O)O)ccc3c3cnccc23)cc1"
  scale unit: "nM"
  qualifier operator: "="
  IC50: 248
- smiles code: "O=C(O)c1ccc2c(c1)nc(Nc1cc(-c3ccccc3)[nH]n1)c1ccncc12"
  scale unit: "nM"
  qualifier operator: ">"
  IC50: 1100

====

Listed below: IC50 values for each entry.
test system: Jurkat; experiment: Cell proliferation modulatory activity, Jurkat; type: cell-based; details: Homo sapiens

- smiles code: "COc1ccc(Nc2ncc3c(n2)c(NC2CC2)nc2cc(C(=O)O)ccc23)cc1Cl"
  qualifier operator: "="
  IC50, µM: 9.17
- smiles code: "CC(C)Nc1ncc2c(n1)c(NC1CC1)nc1cc(C(=O)O)ccc12"
  qualifier operator: "="
  IC50, µM: 2.14
- smiles code: "CCOCCNc1ncc2c(n1)c(NC1CC1)nc1cc(C(=O)O)ccc12"
  qualifier operator: "="
  IC50, µM: 18.1
- smiles code: "COCCNC(=O)c1ccc2c(c1)nc(NC1CC1)c1nc(NC3CC3)ncc12"
  qualifier operator: "="
  IC50, µM: 1.64
- smiles code: "C#Cc1cccc(Nc2nc3cc(C(=O)NCc4ccc(C#N)cc4)ccc3c3cncnc23)c1"
  qualifier operator: "="
  IC50, µM: 9.09
- smiles code: "O=C(O)c1ccc2c(c1)nc(NC1CC1)c1nc(NCCCO)ncc12"
  qualifier operator: ">"
  IC50, µM: 50
- smiles code: "O=C(O)c1ccc2c(c1)nc(NC1CC1)c1nc(NNCCO)ncc12"
  qualifier operator: ">"
  IC50, µM: 50
- smiles code: "CN(C)CCNc1ncc2c(n1)c(Nc1ccc(F)c(Cl)c1)nc1cc(C(=O)O)ccc12"
  qualifier operator: "="
  IC50, µM: 1.25
- smiles code: "COCCNc1ncc2c(n1)c(NC1CC1)nc1cc(C(=O)O)ccc12"
  qualifier operator: "="
  IC50, µM: 13.7
- smiles code: "O=C(O)c1ccc2c(c1)nc(Nc1cccc(Oc3ccccc3)c1)c1ccncc12"
  qualifier operator: ">"
  IC50, µM: 30
- smiles code: "Cc1ccccc1Nc1nc2cc(C(=O)O)ccc2c2cnccc12"
  qualifier operator: "="
  IC50, µM: 15.7
- smiles code: "O=C(O)c1ccc2c(c1)nc(NC1CC1)c1nc(Nc3ccc(F)cc3)ncc12"
  qualifier operator: "="
  IC50, µM: 5.02
- smiles code: "CNc1ncc2c(n1)c(Nc1ccc(F)c(Cl)c1)nc1cc(C(=O)O)ccc12"
  qualifier operator: "="
  IC50, µM: 1.24
- smiles code: "O=C(O)c1ccc2c(c1)nc(NC1CC1)c1nc(Nc3cc(F)cc(F)c3)ncc12"
  qualifier operator: "="
  IC50, µM: 35.4
- smiles code: "O=C(O)c1ccc2c(c1)nc(Nc1ccc(F)c(Cl)c1)c1nc(NC3CC3)ncc12"
  qualifier operator: "="
  IC50, µM: 1.54
